protocol notes: Oral absorbability test in mice (drug concentration in plasma)
Parameters: species or system 7-Week-old female CDF1 mice
setup conditions: mouse, in vivo; female CDF1 mice, oral 109 mg/kg (equivalent molarity), 1.0 hr; read-out: Concentration in plasma, Average of 3 mice
observation type: concentration at 1 h (ng/mL)
Respond numerically; units are ng/mL and should not be typed.

Query: Data request, read-out concentration at 1 h, for O=C(C(c1ccccc1)c1ccccc1)N1CCN(CC(O)COc2cccc3ncccc23)CC1.O=C(O)CC(O)C(=O)O (stereo not shown)
Reply: 11400

* * *

protocol notes: Oral absorbability test in mice (drug concentration in plasma)
Parameters: species or system 7-Week-old female CDF1 mice
setup conditions: mouse, in vivo, po, 100 mg/kg
observation type: concentration at 2 h (ng/mL)
Respond numerically; units are ng/mL and should not be typed.

Query: Data request, read-out concentration at 2 h, for O=C(C(c1ccccc1)c1ccccc1)N1CCN(CC(O)COc2cccc3ncccc23)CC1.O=C(O)/C=C/C(=O)O (stereo not shown)
Reply: 16000
